Biological target: Nanoluciferase-BRD9 fusion protein (3×FLAG-NLuc-BRD9) in SYO-1 cells (Homo sapiens (Human))
Assay: SYO1 BRD9 NanoLuc degradation assay
Format: cell-based
Settings: SYO-1 cells expressing 3×FLAG-NLuc-BRD9, 6 hours incubation, top dose 1 μM
Result Type: IC50

The following compounds have reported results that may help.
* CNC(=O)N1CCc2c(-c3cc(OC)c(CN4CCN(CCC5CCN(c6ccc7c(c6)C(=O)N(C6CCC(=O)NC6=O)C7=O)CC5)C5(CCC5)C4)c(OC)c3)cn(C)c(=O)c2C1 (centres unmarked) | < 10 nM
* COc1cc(-c2cn(C)c(=O)c3c2CCN(C(=O)NC2CC4CN(CCCCN5CCN(c6ccc7c(c6)C(=O)N(C6CCC(=O)NC6=O)C7=O)CC5)CC4C2)C3)cc(OC)c1CN(C)C (centres unmarked) | 100 to 1000 nM
* COc1cc(-c2cn(C)c(=O)c3c2CCN(C(=O)NC2CCC4(CCN(CCCN5CCN(c6ccc7c(c6)C(=O)N(C6CCC(=O)NC6=O)C7=O)CC5)C4)C2)C3)cc(OC)c1CN(C)C (centres unmarked) | 100 to 1000 nM
* CNC(=O)N1CCc2c(-c3cc(OC)c(CN4CCC(F)(CN5CCN(c6ccc7c(c6)C(=O)N(C6CCC(=O)NC6=O)C7=O)CC5)CC4)c(OC)c3)cn(C)c(=O)c2C1 (centres unmarked) | < 10 nM
* COc1cc(-c2cn(C)c(=O)c3c2CCN(C(=O)NCC2CC4CN(c5ccc6c(c5)C(=O)N([C@@H]5CCC(=O)NC5=O)C6=O)CC4C2)C3)cc(OC)c1CN(C)C (some centres unmarked) | < 10 nM
* COc1cc(-c2cn(C)c(=O)c3c2CCN(C(=O)NCC2CCC4(CCN(c5ccc6c(c5)C(=O)N(C5CCC(=O)NC5=O)C6=O)CC4)O2)C3)cc(OC)c1CN(C)C (centres unmarked) | 100 to 1000 nM

Query: Record request: IC50 value, item CNC(=O)N1CCc2c(-c3cc(OC)c(CN4CCC(CCN5CC6CC5CN6c5ccc6c(c5)C(=O)N(C5CCC(=O)NC5=O)C6=O)CC4)c(OC)c3)cn(C)c(=O)c2C1 (centres unmarked)
Result: < 10 nM

Query: Ok, now CNC(=O)N1CCc2c(c(-c3cc(OC)c(CN(C)CC45CC(C(=O)NCCCCCOc6cccc7c6C(=O)N(C6CCC(=O)NC6=O)C7=O)(C4)C5)c(OC)c3)cn(C)c2=O)C1 (centres unmarked)
Result: ≥ 1000 nM

Query: Ok, now CNC(=O)N1CCc2c(-c3cc(OC)c(CNC4CC45CCN(c4ccc6c(c4)C(=O)N(C4CCC(=O)NC4=O)C6=O)C5)c(OC)c3)cn(C)c(=O)c2C1 (centres unmarked)
Result: < 10 nM

Query: Ok, now CNC(=O)N1CCc2c(-c3cc(OC)c(CN4CC5CC4CC5CCN4CCN(c5ccc6c(c5)C(=O)N(C5CCC(=O)NC5=O)C6=O)CC4)c(OC)c3)cn(C)c(=O)c2C1 (centres unmarked)
Result: < 10 nM

----------
Target: Nanoluciferase-BRD9 fusion protein (3×FLAG-NLuc-BRD9) in SYO-1 cells (Homo sapiens (Human), UniProt Q9H8M2)
Sequence (Q9H8M2 whole entry, the tested form may be a part): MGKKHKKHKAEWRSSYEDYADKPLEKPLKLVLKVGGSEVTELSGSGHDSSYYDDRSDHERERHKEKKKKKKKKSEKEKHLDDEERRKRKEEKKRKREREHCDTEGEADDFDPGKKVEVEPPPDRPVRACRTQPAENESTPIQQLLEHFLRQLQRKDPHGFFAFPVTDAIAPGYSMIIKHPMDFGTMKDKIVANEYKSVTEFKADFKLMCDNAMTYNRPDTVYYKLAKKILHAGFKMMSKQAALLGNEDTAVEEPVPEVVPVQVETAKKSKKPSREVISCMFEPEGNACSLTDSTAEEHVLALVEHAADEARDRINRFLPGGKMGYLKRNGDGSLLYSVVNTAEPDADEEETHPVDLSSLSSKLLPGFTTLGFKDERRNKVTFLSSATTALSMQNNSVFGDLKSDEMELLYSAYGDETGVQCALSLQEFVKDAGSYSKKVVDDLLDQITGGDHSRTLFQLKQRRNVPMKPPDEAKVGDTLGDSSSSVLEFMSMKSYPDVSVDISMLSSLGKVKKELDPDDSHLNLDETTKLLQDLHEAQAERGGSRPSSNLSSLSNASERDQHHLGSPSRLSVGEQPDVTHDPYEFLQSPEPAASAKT
Experiment: SYO1 BRD9 NanoLuc degradation assay
Type: cell-based
Conditions: SYO-1 cells expressing 3×FLAG-NLuc-BRD9, 6 hours incubation, top dose 1 μM
pIC50: −log10 of the molar value.
Measured pIC50, listed per entry.

* COc1cc(-c2cn(C)c(=O)c3c2CCN(C(=O)NCCCN2CCC4C2CN4c2ccc4c(c2)C(=O)N(C2CCC(=O)NC2=O)C4=O)C3)cc(OC)c1CN(C)C (stereo not shown) [Compound D260] | 7.00 to 8.00
* CNC(=O)N1CCc2c(-c3cc(OC)c(CN4CCN(CCC5CCN(c6ccc7c(c6)C(=O)N(C6CCC(=O)NC6=O)C7=O)CC5)C5CC54)c(OC)c3)cn(C)c(=O)c2C1 (stereo not shown) [Compound D96] | > 8.00
* COc1cc(-c2cn(C)c(=O)c3c2OCCN3)cc(OC)c1CN1CC(CN2CCC3(CC2)CN(c2ccc4c(c2)C(=O)N(C2CCC(=O)NC2=O)C4)C3)C1 (stereo not shown) [Compound D66] | > 8.00
* COc1cc(-c2cn(C)c(=O)c3c2CCN(C(=O)NCCN(C)CCNC(=O)COc2ccc4c(c2)CN(C2CCC(=O)NC2=O)C4=O)C3)cc(OC)c1CN(C)C (stereo not shown) [Compound D290] | ≤ 6.00
* CNC(=O)N1CCc2c(-c3cc(OC)c(CN4CCN(CCC5CCN(c6ccc7c(c6)C(=O)N(C6CCC(=O)NC6=O)C7=O)CC5)CC4C)c(OC)c3)cn(C)c(=O)c2C1 (stereo not shown) [Compound D99] | > 8.00
* CNC(=O)N1CCc2c(-c3cc(OC)c(CN4CCN(CCC5CCN(c6ccc7c(c6)C(=O)N(c6ccc(F)cc6F)C7=O)CC5)CC4)c(OC)c3)cn(C)c(=O)c2C1 [Compound D70] | ≤ 6.00

Query: Record request: pIC50 value, item CNC(=O)N1CCc2c(-c3cc(OC)c(CN4CC(S(=O)(=O)NCCOc5ccc6c(c5)C(=O)N(C5CCC(=O)NC5=O)C6=O)C4)c(OC)c3)cn(C)c(=O)c2C1 (stereo not shown) [Compound D279]
Result: 6.00 to 7.00

Query: Ok, now COc1cc(-c2cn(C)c(=O)c3c2CCN(C(=O)NCCN2CCC(OC4CCN(c5ccc6c(c5)C(=O)N(C5CCC(=O)NC5=O)C6=O)CC4)CC2)C3)cc(OC)c1CN(C)C (stereo not shown) [Compound D186]
Result: 7.00 to 8.00

Query: Ok, now COc1cc(-c2cn(C)c(=O)c3c2CCN(C(=O)NCC2CC4(CCN(c5ccc6c(c5)C(=O)N(C5CCC(=O)NC5=O)C6=O)CC4)C2)C3)cc(OC)c1CN(C)C (stereo not shown) [Compound D110]
Result: > 8.00

Query: Ok, now CNC(=O)N1CCc2c(-c3cc(OC)c(CN4CCC(CCN5CCN(c6ccc7nc(C)n(C8CCC(=O)NC8=O)c(=O)c7c6)CC5)CC4)c(OC)c3)cn(C)c(=O)c2C1 (stereo not shown) [Compound D65]
Result: 6.00 to 7.00
